Where do the numbers come from? From paper PMC7081424.

Test System: T1, W59F and W228F double mutation of 14-3-3ζ (human, UniProt P63104 1-245, W59F | W228F)
T1 sequence (looked up): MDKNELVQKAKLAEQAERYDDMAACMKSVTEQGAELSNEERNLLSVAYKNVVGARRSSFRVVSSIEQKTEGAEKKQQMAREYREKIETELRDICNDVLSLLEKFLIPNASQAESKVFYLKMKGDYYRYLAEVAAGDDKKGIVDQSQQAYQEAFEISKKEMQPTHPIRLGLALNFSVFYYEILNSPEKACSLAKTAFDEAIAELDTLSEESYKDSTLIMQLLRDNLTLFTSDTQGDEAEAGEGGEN
Method Description: fluorescence polarisation
Square brackets hold non-standard residues; d marks the D form. Primed or numbered codes have the meaning given here. FITC′ = fluorescein isothiocyanate; pS = N[C@@H](COP(=O)(O)O)C(=O)O; βAla = NCCC(=O)O
Reported Endpoint: Kd

Please look up its Kd: {FITC′-βAla}-QEVPRG[pS]EPWKQQ-NH2 (peptide, UniProt P25963 57-69, looked up) [FITC-labeled IκBαpS63 peptide (phosphorylated 14-3-3 binding motif of IκBα)] ~415 µM
